Assignment: determine reported normalized signal at concentration 0.37037 for the given compounds.
system: Plasmodium berghei (Pb-Luc) exoerythrocytic-stage parasites; details: second series; concentration 0.37037; fraction of control
Give bare numbers.

These recorded examples may help you get a feel for the data.
# Chemical string, Observed
records = [
    ("O=S(=O)(c1cccs1)N1CCCCN2[C@H](CO)[C@H](c3ccc(/C=C/c4ccccc4)cc3)[C@H]2C1", 0.91),
    ("C[C@@H]1CN([C@@H](C)CO)C(=O)c2cccc(NC(=O)C3CC3)c2O[C@@H]1CN(C)C(=O)Nc1ccc(C(F)(F)F)cc1", 1.0101),
    ("COc1ccc(S(=O)(=O)N(C)C[C@H]2Oc3ccc(NC(=O)Cc4cn(C)c5ccccc45)cc3C(=O)N([C@H](C)CO)C[C@@H]2C)cc1", 1.021),
]

Hey, quick one: what's normalized signal at concentration 0.37037 for each of these?
1. C[C@H]1CCCCO[C@H](CN(C)S(=O)(=O)c2ccc(F)cc2)[C@@H](C)CN([C@@H](C)CO)C(=O)c2cc(N(C)C)ccc2O1
2. C[C@@H]1CN([C@H](C)CO)C(=O)c2cc(N(C)C)ccc2O[C@@H](C)CCCCO[C@@H]1CN(C)S(=O)(=O)c1ccc(F)cc1

Solution:
0.98
0.92

====

test system: HepG2-A16-CD81EGFP cells; conditions: human, 50 uM
Observation type: HepG2 Tox% @ 50 uM rep1 (%)
Give bare numbers, in %.

# Molecule, Endpoint unit, HepG2 Tox% @ 50 uM rep1
data = [
    ("N=c1n(CCN2CCCCC2)c2ccccc2n1CC(O)c1cccc(Br)c1 (stereo not shown)", "%", 101),
]

Hey, quick one: what's HepG2 Tox% @ 50 uM rep1 for each of these?
1. COc1ccc(Nc2cc(C)nc(NCc3ccccc3)n2)cc1
2. O=C1c2ccc3c4c(ccc(c24)C(=O)N1CCCCO)C(=O)N(CCCCO)C3=O
3. COc1ccc(CNC2CCN(c3ccc(NC(=O)c4cccc(Cl)c4)cc3)CC2)cc1OC
4. CCCCCn1c(=N)n(CC(O)COc2cccc(C)c2)c2ccccc21 (stereo not shown)
5. Cc1cc(C)cc(Nc2cc(C)nc3nc(C(F)(F)F)nn23)c1
6. CN(C)c1ccc(N=Cc2ccc(N3CCOCC3)cc2)cc1
7. CCOC(=O)c1c(NC(=O)c2ccccc2)sc2c(O)c(CN(CC)CC)ccc12

Solution:
1: 97; 2: 102; 3: 98; 4: 100; 5: 30; 6: -8; 7: 27

Hey, quick one: what's HepG2 Tox% @ 50 uM rep1 for each of these?
1. CC(C)CNC(=O)c1c(N)n(CCc2ccccc2F)c2nc3ccccc3nc12
2. COc1ccccc1C(=O)ON=C(N)Cc1cccc2ccccc12
3. COc1ccc(C=C2SC(Nc3ccc(F)cc3)=NC2=O)c(OC)c1
4. OC(CNCC1CCCO1)Cn1c2ccc(Cl)cc2c2cc(Cl)ccc21 (stereo not shown)
5. CCC(=O)Nc1nnc(Cc2ccc(OC)c(OC)c2)s1
6. CCOC(=O)c1cnc2ccc(Cl)cc2c1NCCCN(C)C
7. O=C(CCc1ccccc1)c1ccccc1OCC(O)CN1CCCCC1 (stereo not shown)

Solution:
1. 99
2. 101
3. 100
4. 98
5. -26
6. 99
7. 97

Exercise: Form field: reported HepG2 Tox% @ 50 uM rep1 of `CCOc1ccc(Nc2c3ccccc3nc3ccccc23)cc1`
Solution: 102
